system tested: NaV 1.7 (Homo sapiens, UniProt Q15858)
Sequence (Q15858 whole entry): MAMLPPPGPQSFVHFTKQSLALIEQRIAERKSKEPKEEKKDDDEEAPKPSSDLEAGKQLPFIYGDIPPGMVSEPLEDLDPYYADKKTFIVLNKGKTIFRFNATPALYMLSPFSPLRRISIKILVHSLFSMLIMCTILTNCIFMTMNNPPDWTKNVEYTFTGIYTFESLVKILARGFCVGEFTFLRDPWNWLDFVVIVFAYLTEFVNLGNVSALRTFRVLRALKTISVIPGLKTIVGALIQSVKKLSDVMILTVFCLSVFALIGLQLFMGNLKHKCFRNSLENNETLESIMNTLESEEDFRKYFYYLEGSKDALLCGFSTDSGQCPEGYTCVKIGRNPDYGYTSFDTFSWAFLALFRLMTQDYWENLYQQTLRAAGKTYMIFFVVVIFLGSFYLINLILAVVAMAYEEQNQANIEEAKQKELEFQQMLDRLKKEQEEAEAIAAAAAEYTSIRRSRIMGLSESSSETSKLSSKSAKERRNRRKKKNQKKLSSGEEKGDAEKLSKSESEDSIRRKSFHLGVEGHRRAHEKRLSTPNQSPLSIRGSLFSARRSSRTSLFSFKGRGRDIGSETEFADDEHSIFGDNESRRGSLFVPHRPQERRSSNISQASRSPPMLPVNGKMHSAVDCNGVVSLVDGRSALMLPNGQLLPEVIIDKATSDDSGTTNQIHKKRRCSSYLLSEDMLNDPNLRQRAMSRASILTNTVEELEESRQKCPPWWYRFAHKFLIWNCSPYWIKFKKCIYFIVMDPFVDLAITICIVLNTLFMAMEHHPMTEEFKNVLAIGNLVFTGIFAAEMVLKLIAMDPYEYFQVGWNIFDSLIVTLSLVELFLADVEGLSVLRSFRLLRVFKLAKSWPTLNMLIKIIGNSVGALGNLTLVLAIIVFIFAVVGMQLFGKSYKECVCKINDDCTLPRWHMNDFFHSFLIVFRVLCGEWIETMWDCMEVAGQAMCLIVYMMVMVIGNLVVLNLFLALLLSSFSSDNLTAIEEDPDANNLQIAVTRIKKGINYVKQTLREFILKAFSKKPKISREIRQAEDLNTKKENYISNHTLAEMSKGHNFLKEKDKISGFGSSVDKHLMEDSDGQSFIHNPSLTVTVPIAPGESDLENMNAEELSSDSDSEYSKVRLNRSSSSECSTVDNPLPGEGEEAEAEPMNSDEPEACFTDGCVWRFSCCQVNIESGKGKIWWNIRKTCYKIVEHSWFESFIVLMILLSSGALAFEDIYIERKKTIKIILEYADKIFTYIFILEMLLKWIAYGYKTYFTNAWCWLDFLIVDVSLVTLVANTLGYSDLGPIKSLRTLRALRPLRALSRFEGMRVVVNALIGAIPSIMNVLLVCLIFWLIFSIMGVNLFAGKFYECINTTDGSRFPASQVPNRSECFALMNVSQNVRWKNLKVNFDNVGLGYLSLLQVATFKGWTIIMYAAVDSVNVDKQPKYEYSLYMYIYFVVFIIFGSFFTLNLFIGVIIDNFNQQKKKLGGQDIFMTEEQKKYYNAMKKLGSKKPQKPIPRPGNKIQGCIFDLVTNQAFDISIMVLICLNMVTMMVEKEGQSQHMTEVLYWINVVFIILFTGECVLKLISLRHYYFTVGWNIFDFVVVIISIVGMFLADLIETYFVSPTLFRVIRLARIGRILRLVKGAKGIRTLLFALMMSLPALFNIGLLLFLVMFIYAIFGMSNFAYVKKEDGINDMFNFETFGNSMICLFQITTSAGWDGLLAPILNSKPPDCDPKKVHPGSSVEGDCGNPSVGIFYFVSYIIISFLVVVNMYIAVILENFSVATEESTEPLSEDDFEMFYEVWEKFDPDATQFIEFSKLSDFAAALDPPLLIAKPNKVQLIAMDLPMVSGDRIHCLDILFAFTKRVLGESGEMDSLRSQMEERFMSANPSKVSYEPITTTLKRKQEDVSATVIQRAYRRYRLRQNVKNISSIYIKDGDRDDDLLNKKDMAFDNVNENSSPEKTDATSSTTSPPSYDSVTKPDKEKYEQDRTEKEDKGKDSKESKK
protocol text: E-VIPR optical membrane potential assay with electrical stimulation
setup conditions: active against one or more sodium channels; assay/subtype not specified in Table 4; read-out: IC50 Binned Activity Data
endpoint label: IC50

Worked cases, IC50 given:
COc1cc(C(=O)N2CCC3(c4ccccc4)CC3C2)ccc1OCC1CCCO1 (stereo not drawn)
≤ 2000 nM
Cc1cc(C(=O)N2CC[C@]3(c4ccc(F)cc4)OCOC3C2)ccc1OCC(C)(C)F (stereo partly drawn)
≤ 2000 nM

[ask] Give reported IC50 value for O=C(c1ccc(OCCC(F)(F)F)c(C(F)(F)F)c1)N1CC[C@@]2(c3cccc(F)c3)OCOC2C1 (stereo partly drawn)
[reply] ≤ 2000 nM

---

system tested: NaV 1.7 (Homo sapiens)
protocol text: E-VIPR optical membrane potential assay with electrical stimulation
setup conditions: active against one or more sodium channels; assay/subtype not specified in Table 4; read-out: IC50 Binned Activity Data
pIC50: −log10 of the molar value.
endpoint label: pIC50

COc1nc(C(=O)N2CC[C@]3(c4cccc(F)c4)OCOC3C2)ccc1OCC1CC2(C1)CC(F)(F)C2 (some centres unmarked)
≥ 5.70
COc1nc(C(=O)N2CC[C@]3(c4ccccn4)OCOC3C2)ccc1OCC1(C(F)(F)F)CC1 (some centres unmarked)
≥ 5.70
COc1cc(C(=O)N2CC[C@]3(c4ncccn4)OCOC3C2)ccc1OCCOC(F)(F)F (some centres unmarked)
< 5.30
COc1cc(C(=O)N2CC[C@]3(c4cc(C(F)(F)F)ccn4)OCOC3C2)ccc1OCCC(F)(F)F (some centres unmarked)
≥ 5.70

[ask] Give reported pIC50 value for [2H]C1([2H])OC2CN(C(=O)c3ccc(OCCOC(F)(F)F)c(C)n3)CC[C@]2(c2cccc(F)c2)O1 (some centres unmarked)
[reply] ≥ 5.70

---

system tested: NaV 1.7 (Homo sapiens, UniProt Q15858)
protocol text: E-VIPR optical membrane potential assay with electrical stimulation
setup conditions: active against one or more sodium channels; assay/subtype not specified in Table 4; read-out: IC50 Binned Activity Data
pIC50: −log10 of the molar value.
endpoint label: pIC50

Worked cases, pIC50 given:
Cc1cc(C(=O)N2CC[C@]3(c4ccc(F)cc4)OCOC3C2)ccc1OCC(C)(C)O (stereo partly drawn)
≥ 5.70
COc1cc(C(=O)N2CC[C@]3(c4cccc(C#N)c4)OCOC3C2)ccc1OCC1CC(F)(F)C1 (stereo partly drawn)
≥ 5.70

In the following, a different compound is considered.
[ask] Give reported pIC50 value for COc1cc(C(=O)N2CC[C@]3(c4cccc(F)c4F)OCOC3C2)ccc1OCC1CC(F)(F)C1 (stereo partly drawn)
[reply] ≥ 5.70

---

system tested: UniProt Q15858
protocol text: E-VIPR optical membrane potential assay with electrical stimulation
setup conditions: active against one or more sodium channels; assay/subtype not specified in Table 4; read-out: IC50 Binned Activity Data
The reader will find reported IC50 values listed item by item below.

Worked cases, IC50 given:
COc1cc(C(=O)N2CC[C@]3(c4cccc(Cl)c4)OCOC3C2)ccc1OCCOC(F)(F)F (stereo partly drawn) [Compound 283]
≤ 2000 nM
COc1cc(C(=O)N2CC[C@]3(c4ncccc4Cl)OCOC3C2)ccc1OCCOC(F)(F)F (stereo partly drawn) [Compound 155]
≤ 2000 nM
COc1cc(C(=O)N2CC[C@@]3(c4ccc(F)cc4)OCOC3C2)ccc1COCCC(F)(F)F (stereo partly drawn) [Compound 48]
≤ 2000 nM
COc1nc(C(=O)N2CCC3(c4ccccc4)CC3C2)ccc1OCCOC(F)(F)F (stereo not drawn) [Compound 178]
≤ 2000 nM
Cc1cc(C(=O)N2CC[C@]3(c4ccccn4)OCOC3C2)ccc1OCCOC(F)(F)F (stereo partly drawn) [Compound 165]
≤ 2000 nM
COc1nc(C(=O)N2CC[C@]3(c4cccc(Cl)c4)OCOC3C2)ccc1OCCOC(F)(F)F (stereo partly drawn) [Compound 183]
≤ 2000 nM
COc1cc(C(=O)N2CC[C@]3(c4cccc(Cl)c4)OCOC3C2)ccc1OCC1CC(F)(F)C1 (stereo partly drawn) [Compound 176]
≤ 2000 nM
O=C(c1ccc(O)c(Cl)c1)N1CC[C@]2(c3ccccn3)OCOC2C1 (stereo partly drawn) [Compound 9]
> 5000 nM

In the following, a different compound is considered.
[ask] Give reported IC50 value for CC(C)(F)COc1ccc(C(=O)N2CC[C@@]3(c4ccccn4)CO[C@H]3C2)cc1C(F)(F)F [Compound 205]
[reply] > 5000 nM

---

The reader will find reported IC50 values listed item by item below.
system tested: NaV 1.7 (Homo sapiens, UniProt Q15858)
protocol text: E-VIPR optical membrane potential assay with electrical stimulation
setup conditions: active against one or more sodium channels; assay/subtype not specified in Table 4; read-out: IC50 Binned Activity Data

[ask] Give reported IC50 value for COc1cc(C(=O)N2CC[C@]3(c4cc(C(F)(F)F)ccn4)OCOC3C2)ccc1OCC1CCC(F)(F)C1 (stereo partly drawn) [Compound 204]
[reply] ≤ 2 µM

[ask] Give reported IC50 value for Cc1nc(C(=O)N2CCC3(c4ccccc4)OCC3C2)ccc1OC(C)C (stereo not drawn) [Compound 56]
[reply] ≤ 2 µM

[ask] Give reported IC50 value for COc1cc(C(=O)N2CC[C@]3(c4cccc(C)n4)OCOC3C2)ccc1OCCOC(F)(F)F (stereo partly drawn) [Compound 154]
[reply] ≤ 2 µM

[ask] Give reported IC50 value for COc1nc(C(=O)N2CC[C@]3(c4cccc(F)c4)OCOC3C2)ccc1OCC1CC(F)(F)C1 (stereo partly drawn) [Compound 180]
[reply] ≤ 2 µM

[ask] Give reported IC50 value for Cc1cc(C(=O)N2CCC3(c4ccccc4)CC3C2)cnc1OC(C)C (stereo not drawn) [Compound 18]
[reply] 2 to 5 µM

[ask] Give reported IC50 value for COc1nc(C(=O)N2CC[C@]3(c4ncccc4F)OCOC3C2)ccc1OCCOC(F)(F)F (stereo partly drawn) [Compound 96]
[reply] ≤ 2 µM

[ask] Give reported IC50 value for COc1cc(C(=O)N2CC[C@]3(c4cccc(C#N)c4)OCOC3C2)ccc1OCCOC(F)(F)F (stereo partly drawn) [Compound 293]
[reply] ≤ 2 µM

[ask] Give reported IC50 value for CC(C)(O)c1ccc(C(=O)N2CCC3(c4ccccc4)CC3C2)cc1 (stereo not drawn) [Compound 29]
[reply] ≤ 2 µM

[ask] Give reported IC50 value for CC(C)Oc1ccc(C(=O)N2CCC3(c4ccccc4)CC3C2)cn1 (stereo not drawn) [Compound 10]
[reply] > 5 µM
